src = ChEMBL document CHEMBL3507680

Below, each entry is listed with its recorded cytotoxicity at 70.5 h.
- assayProtocol: Human HepG2 cell viability assay in 384 well format
- Type: toxicity, cell-based
- Set-up: dose 125 nL, time 70.5 hour; concentration not given beside the values
- measurementConditions: HepG2 cells, read-out: Inhibition
Your answer is read as %, so omit the unit and give the number.

{"molecule": "CC(=O)N1CC[C@H]2[C@H](C[C@@H](Cn3cncn3)N2c2nccs2)C1", "cytotoxicity at 70.5 h [%]": -8.31}
{"molecule": "CC(=O)OCC1CCCCN1C(=O)c1ccc(Cn2ccnc2)o1 (configuration not stated)", "cytotoxicity at 70.5 h [%]": 22.8}
{"molecule": "CC(C)NC(=O)C1CCC2(CCN(Cc3cnn(C)c3)CC2)C1 (configuration not stated)", "cytotoxicity at 70.5 h [%]": -8.81}
{"molecule": "Cc1ccc(C2COCCN2C(=O)c2ccc(N(C)C)cc2)o1 (configuration not stated)", "cytotoxicity at 70.5 h [%]": -8.97}
{"molecule": "Cc1cccc(C(=O)Nc2ccc(OC3CCN(C)CC3)cc2)c1", "cytotoxicity at 70.5 h [%]": 19.2}

According to the records, this molecule O=C(Cc1ccccc1)N1CCC2(CC1)COCCN2CC1CC1 displays cytotoxicity at 70.5 h of -9.82

According to the records, this molecule COc1ccc(Oc2ncccc2NC(=O)N2CCOCC2C)cc1 (configuration not stated) displays cytotoxicity at 70.5 h of -1.92

According to the records, this molecule CC1c2ncc(COCC3CC3)n2CCN1C (configuration not stated) displays cytotoxicity at 70.5 h of -4.63

According to the records, this molecule COCc1noc(Cn2c(C3CC3)nc3ccccc32)n1 displays cytotoxicity at 70.5 h of 21.1

According to the records, this molecule COCCN(c1ccncc1)S(=O)(=O)c1cc(C)c(F)cc1F displays cytotoxicity at 70.5 h of 15.9

According to the records, this molecule COCCn1cc(C(=O)NCCS(N)(=O)=O)c2ccccc21 displays cytotoxicity at 70.5 h of -7.1

According to the records, this molecule CN(C)c1ncccc1CNS(=O)(=O)c1c(F)cccc1F displays cytotoxicity at 70.5 h of -8.75

According to the records, this molecule CCN(CC)C(=O)Cn1cc(C(=O)NCCCc2scnc2C)nn1 displays cytotoxicity at 70.5 h of -4.02

====

Below, each entry is listed with its recorded cytotoxicity at 70.5 h.
- assayProtocol: Human HepG2 cell viability assay in 384 well format
- Format: toxicity, cell-based
- Parameters: dose 125 nL, time 70.5 hour; concentration not given beside the values
- measurementConditions: HepG2 cells, read-out: Inhibition
Your answer is read as %, so omit the unit and give the number.

{"molecule": "Cc1cccc2cc(CN3CCC(N4CCOCC4)CC3)c(=O)[nH]c12", "unitAbbrev": "%", "cytotoxicity at 70.5 h": -5.31}
{"molecule": "Cn1cnc2c1CCN(Cc1nc(COc3ccc(F)cc3)no1)C2", "unitAbbrev": "%", "cytotoxicity at 70.5 h": 10.6}
{"molecule": "COc1cccc(N2CCC(N3C[C@@H](NC(C)=O)[C@H](C(C)C)C3)CC2)c1", "unitAbbrev": "%", "cytotoxicity at 70.5 h": -6.54}
{"molecule": "CN1CC(=O)N(c2cnn(C)c2)CC12CCN(Cc1cccs1)C2 (stereo not given)", "unitAbbrev": "%", "cytotoxicity at 70.5 h": -1.01}
{"molecule": "CN1CCCC2(C1)CN(C(=O)C1CCCCC1)CCO2 (stereo not given)", "unitAbbrev": "%", "cytotoxicity at 70.5 h": -4.05}

According to the records, this molecule CCn1nc(C)c(CN(CCCN(C)C)Cc2ccccn2)c1C displays cytotoxicity at 70.5 h of 21.3

According to the records, this molecule Cc1cc(C)n(CC2CCCN2C(=O)c2ccc3[nH]cnc3c2)n1 (stereo not given) displays cytotoxicity at 70.5 h of -9

According to the records, this molecule CCn1c(SCC(N)=O)nnc1C(C)NC(=O)c1ccc(Cl)cc1 (stereo not given) displays cytotoxicity at 70.5 h of 17.8

According to the records, this molecule COc1ccc(-n2c(COC(C)C)n[nH]c2=O)cc1 displays cytotoxicity at 70.5 h of -6.26

According to the records, this molecule O=C(NC1CC1)N1C[C@H]2CN(c3ccccc3)C(=O)[C@H]2C1 displays cytotoxicity at 70.5 h of 4.91

====

- assayProtocol: Human HepG2 cell viability assay in 384 well format
- Assay type: toxicity, cell-based
- Parameters: dose 125 nL, time 70.5 hour; concentration not given beside the values
- measurementConditions: HepG2 cells, read-out: Inhibition
reportedEndpoint: cytotoxicity at 70.5 h (%)
Your answer is read as %, so omit the unit and give the number.

According to the records, this compound CC(C)C(=O)N1CCCC(Cc2ncccn2)C1 (stereo not given) displays cytotoxicity at 70.5 h of -1.65

According to the records, this compound Cc1noc(C)c1CN1CCC2(CC1)C(c1ccccc1)CC(=O)N2C (stereo not given) displays cytotoxicity at 70.5 h of -1.86

According to the records, this compound Cc1cnc(C(=O)N2CCCC(n3nc(C)nc3C)C2)cn1 (stereo not given) displays cytotoxicity at 70.5 h of -11.1

====

Below, each entry is listed with its recorded cytotoxicity at 70.5 h.
- assayProtocol: Human HepG2 cell viability assay in 384 well format
- Type: toxicity, cell-based
- Design: dose 125 nL, time 70.5 hour; concentration not given beside the values
- measurementConditions: HepG2 cells, read-out: Inhibition
Enter the number, and then the unit.

Check out these entries, answers already filled in.
{"compound": "Cc1c(C(=O)NC(CN2CCCC2=O)c2ccccc2)cnn1C (centres undefined)", "testResult": "0.932%"}
{"compound": "CNCC(=O)N1CC(c2cc(Nc3nc(C)cs3)nc(C)n2)C1", "testResult": "-12.3%"}
{"compound": "Cc1ncsc1CN1C[C@@H](OCC(=O)N(C)C)[C@H]2OCCC[C@H]21", "testResult": "-11.1%"}

Now look at this one.
According to the records, this compound CCc1noc(CN(C)C(=O)c2ccnc(OC3CCC3)c2)n1 displays cytotoxicity at 70.5 h of -0.589%

====

- assayProtocol: Human HepG2 cell viability assay in 384 well format
- Format: toxicity, cell-based
- Set-up: dose 125 nL, time 70.5 hour; concentration not given beside the values
- measurementConditions: HepG2 cells, read-out: Inhibition
Below, each entry is listed with its recorded cytotoxicity at 70.5 h.
Your answer is read as %, so omit the unit and give the number.

Check out these entries, answers already filled in.
{"compound": "CCn1ncc2c(C(F)F)cc(-c3ccn(C)n3)nc21", "cytotoxicity at 70.5 h (%)": -7.69}
{"compound": "COc1cccc2c1OCC(C(=O)NCc1nc3c(s1)CCCC3)C2 (stereo not drawn)", "cytotoxicity at 70.5 h (%)": 21.6}

Now look at this one.
According to the records, this compound O=C(NCc1ccccn1)[C@@]12CCO[C@@H]1CCN(C1CCCC1)C2 displays cytotoxicity at 70.5 h of -1.56

====

Below, each entry is listed with its recorded cytotoxicity at 70.5 h.
- assayProtocol: Human HepG2 cell viability assay in 384 well format
- Type: toxicity, cell-based
- Set-up: dose 125 nL, time 70.5 hour; concentration not given beside the values
- measurementConditions: HepG2 cells, read-out: Inhibition
Enter the number, and then the unit.

{"compound": "CCC(C)NS(=O)(=O)Cc1cccc(NC(=O)C(C)C)c1 (configuration not stated)", "cytotoxicity at 70.5 h": "-2.19%"}

According to the records, this compound COc1cccc(N2CCN(C(=O)C(OC)c3ccccc3)CC2=O)c1 (configuration not stated) displays cytotoxicity at 70.5 h of -7.1%

According to the records, this compound O=C(NC1(c2nc(C3CC3)no2)CCCCC1)c1ccncc1 displays cytotoxicity at 70.5 h of 5.56%

According to the records, this compound CC(C)CN1C[C@H]2CCN(C(=O)NC3CCCC3)CC[C@H]2S1(=O)=O displays cytotoxicity at 70.5 h of -9.06%

According to the records, this compound Cc1nnsc1C(=O)NCC1CCN(c2ccccn2)CC1 displays cytotoxicity at 70.5 h of -8.36%

According to the records, this compound CS(=O)(=O)N1CCO[C@@H]2CN(C(=O)c3cccnc3)C[C@@H]2C1 displays cytotoxicity at 70.5 h of -2.16%

====

Below, each entry is listed with its recorded cytotoxicity at 70.5 h.
- assayProtocol: Human HepG2 cell viability assay in 384 well format
- Type: toxicity, cell-based
- Set-up: dose 125 nL, time 70.5 hour; concentration not given beside the values
- measurementConditions: HepG2 cells, read-out: Inhibition
Your answer is read as %, so omit the unit and give the number.

{"compound": "CCOc1ccc(NC(=O)N2CCNC(=O)C2)c(C(F)(F)F)c1", "cytotoxicity at 70.5 h (%)": 1.37}
{"compound": "COCCN1C[C@@H]2[C@@H](OC)CCN(C(=O)c3cccc(OC)c3)[C@@H]2C1", "cytotoxicity at 70.5 h (%)": 2}
{"compound": "COc1cccc(-n2c(C)cc(C(=O)O)c2C)c1", "cytotoxicity at 70.5 h (%)": -5.75}
{"compound": "CC(C)(C)CN1CCC(c2nnc(Cn3ccnc3)n2C2CC2)CC1", "cytotoxicity at 70.5 h (%)": -3.87}
{"compound": "O=C(CCc1cscn1)NS(=O)(=O)c1ccc2ccccc2c1", "cytotoxicity at 70.5 h (%)": -5.17}

According to the records, this compound Cc1nc(C)n(CC2CN(Cc3ccccc3C#N)CCO2)n1 (configuration not stated) displays cytotoxicity at 70.5 h of -3.74

According to the records, this compound COc1cccc2c1OCC(Cc1ccc(N)nc1C)C2 (configuration not stated) displays cytotoxicity at 70.5 h of -1.03

According to the records, this compound Cn1c2ccccc2c2ncn(CCN3CCOCC3)c(=O)c21 displays cytotoxicity at 70.5 h of 11.8

According to the records, this compound Cc1[nH]ccc1C(=O)N(Cc1ccc(O)cc1)CC1CC1 displays cytotoxicity at 70.5 h of -3.9
